Target: RAD52-RPA-Cy3-dT30-Cy5 complex (Homo sapiens, UniProt P43351)
Assay: FRET-based RAD52 binding/wrapping of RPA-coated ssDNA

compound: O=C(O[C@@H]1O[C@@H]2COC(=O)c3cc(O)c(O)c(O)c3-c3c(cc(O)c(O)c3O)C(=O)O[C@H]([C@H]1O)[C@@H]2O)c1cc(O)c(O)c(O)c1 [NP-004255, corilagin]
assayTarget: RAD52-RPA-Cy3-dT30-Cy5 complex (Homo sapiens, UniProt P43351)
IC50, nM: 500

###

Target: RAD52-ssDNA interaction (Homo sapiens)
Construct: made in house
Sequence (P43351 1-418): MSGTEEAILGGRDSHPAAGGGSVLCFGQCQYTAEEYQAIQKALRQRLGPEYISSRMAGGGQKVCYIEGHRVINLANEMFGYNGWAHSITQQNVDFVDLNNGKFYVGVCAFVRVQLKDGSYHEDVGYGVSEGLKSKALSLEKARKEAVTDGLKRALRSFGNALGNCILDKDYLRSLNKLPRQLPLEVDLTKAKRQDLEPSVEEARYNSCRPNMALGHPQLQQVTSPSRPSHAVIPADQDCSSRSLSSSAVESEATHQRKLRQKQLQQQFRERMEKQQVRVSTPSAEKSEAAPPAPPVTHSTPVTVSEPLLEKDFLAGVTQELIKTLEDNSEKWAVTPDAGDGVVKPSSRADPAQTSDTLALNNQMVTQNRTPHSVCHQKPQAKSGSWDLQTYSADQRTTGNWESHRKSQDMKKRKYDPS
Assay: FRET-based ssDNA binding and wrapping assay (RAD52-Cy3-dT30-Cy5 complex)
measurementType: IC50

mol: O=c1c(O)c(-c2ccc(O)c(O)c2)oc2c(O)c(O)cc(O)c12
observedMeasurement: 913 nM
--
mol: NCCc1cc(O)c(O)cc1O
observedMeasurement: 779 nM
--
mol: CN(C)[C@@H]1C(O)=C(C(=O)NCN2CCCC2)C(=O)[C@@]2(O)C(O)=C3C(=O)c4c(O)cccc4[C@@](C)(O)[C@H]3C[C@@H]12
observedMeasurement: 29000 nM

###

Target: RAD52-mediated ssDNA annealing (Homo sapiens)
Construct: made in house
Experiment: FRET-based RAD52-mediated ssDNA annealing assay
Assay type: biochemical
Settings: 8 nM RAD52, 0.5 nM T-28 and 0.5 nM P-28; read-out: IC50 (Annealing extent), ssDNA
Counter-ions that a name gives are not always drawn.
Measured IC50 by item

compound: Oc1cc(O)c2c(c1)O[C@H](c1ccc(O)c(O)c1)[C@H](O)C2 [Compound 7, (−)−Epicatechin]
qualifierOperator: >
IC50 [µM]: 100
--
compound: CC1(C)C(=O)C=C[C@@]2(C)C1=C(O)C(=O)[C@]1(C)[C@@H]2CC[C@@]2(C)[C@H](c3ccoc3)C[C@H]3O[C@]321 [Compound 17, Cedrelone]
qualifierOperator: >
IC50 [µM]: 100
--
compound: C=C1c2cccc(O)c2C(=O)C2=C(O)[C@]3(O)C(=O)C(C(N)=O)=C(O)[C@@H](N(C)C)[C@@H]3[C@@H](O)[C@H]12 [Compound 3, Methacycline Hydrochloride]
qualifierOperator: =
IC50 [µM]: 3.8
--
compound: O=C1c2ccc(O)c(O)c2C(=O)c2c(O)ccc(O)c21 [Compound 15, Quinalizarin]
qualifierOperator: =
IC50 [µM]: 5.6
--
compound: O=C(O[C@@H]1Cc2c(O)cc(O)cc2O[C@@H]1c1ccc(O)c(O)c1)c1cc(O)c(O)c(O)c1 [Compound 5, (−)−Epicatechin gallate]
qualifierOperator: =
IC50 [µM]: 20
--
compound: C[C@H]1[C@H](C)CC[C@]2(C(=O)O)CC[C@]3(C)C(=CC[C@@H]4[C@@]5(C)C[C@@H](O)[C@H](O)[C@@](C)(CO)[C@@H]5CC[C@]43C)[C@H]12 [Compound 18, Asiatic Acid]
qualifierOperator: >
IC50 [µM]: 100
